Tested on: UACC-62 melanoma
assay details: NCI tumour cell line growth inhibition, 48 h

molecule	TGI
COc1ccc(Sc2nc3cc(N)cc(N)c3nc2-c2ccccc2)cc1	> 100 µM
Cc1nn2c(nc1=O)sc1ccc3ccccc3c12	> 100 µM
CCOC(=O)CCSc1nc2ccc(I)cc2c(=O)n1Cc1ccccc1	> 93.5 µM
OC[P+](CO)(CO)C12CC3CC(CC(C3)C1)C2	> 100 µM
Cc1cc(O)cc(C)c1/C=C/c1cncc(C(N)=O)c1	23.1 µM
CN1CCC2(CC1)NC(=O)c1c(c3ccc(Cl)c(Cl)c3n1C)C2C#N (stereo not drawn)	3.22 µM
C/C=C1\CC2C(=O)CCC2C2c3ccccc3OC12 (stereo not drawn)	> 100 µM
COC(=O)C1=COC(OC2OC(CO)C(O)C(O)C2O)C2C3CN4CCc5c([nH]c6ccccc56)C4(CC12)O3 (stereo not drawn)	> 100 µM
O=C(OCc1ccc([N+](=O)[O-])cc1)N1c2ccccc2[C@@]23O[C@]24CCC[C@H]3C#C/C=C\C#C[C@H]14	> 100 µM
Cc1ccc([N+](=O)[O-])cc1S(=O)(=O)Nc1ccc(C2=NOC(c3cccs3)C2)cc1 (stereo not drawn)	17.8 µM
CC[C@@H](C(=O)[C@H](C)[C@H](O)[C@@H](C)[C@H]1O[C@H]([C@@H](CC)C(=O)N(CC)CC)CC[C@H]1C)C1O[C@]2(C=C[C@@H](O)[C@]3(CC[C@@](C)([C@H]4CC[C@](O)(CC)[C@H](C)O4)O3)O2)[C@H](C)C[C@@H]1C (stereo partly drawn)	10.8 µM
O=[N+]([O-])c1ccc(Oc2c(Cl)cc(S(=O)(=O)/N=C(\NO)Nc3ccc(Cl)cc3)cc2Cl)c(Cl)c1	27.5 µM
COc1cc2oc(-c3ccc4c(c3)OCO4)c(OC)c(=O)c2c(OC)c1O	> 100 µM
NC(=O)/C(=N\NC(=O)C[n+]1ccccc1)C1NC(=O)NC1=O (stereo not drawn)	> 100 µM
Cc1ccc(N=NC(=Nc2ccc(Cl)cc2)c2ccc(N(CCC#N)CCC#N)cc2)cc1	> 100 µM
O=C(O)COc1ccc(C(=O)/C(SS/C(C(=O)c2ccc(OCC(=O)O)c(Cl)c2Cl)=C2\C=C(c3ccc(Cl)cc3)SS2)=C2/C=C(c3ccc(Cl)cc3)SS2)c(Cl)c1Cl	25.7 µM
Clc1ccc(CCn2cncn2)cc1	> 100 µM
O=C(NCc1cccnc1)C1COc2cc(-c3cc(=O)c4ccccc4o3)ccc2O1 (stereo not drawn)	> 100 µM
